Target: Recombinant human his-tagged IGF R extracellular domain protein (human) (UniProt P08069)
Assay: SPR, Ab captured via anti-huIgG Fc, dissociation at pH 6
readout: pKd
The scale used: pKd is minus the common logarithm of the concentration in molar units.

Reference set (2 entries):
Q. Reported pKd for VRDN-02052 (antibody, V domains shown) VH: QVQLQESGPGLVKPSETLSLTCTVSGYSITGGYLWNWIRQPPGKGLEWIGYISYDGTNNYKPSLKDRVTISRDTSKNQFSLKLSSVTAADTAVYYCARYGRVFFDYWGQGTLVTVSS VL: DIVMTQSPLSLPVTPGEPASISCRSSQSIVHSNGNTYLQWYLQKPGQSPQLLIYKVSNRLYGVPDRFSGSGSGTDFTLKISRVEAEDVGVYYCFHGSHVPWTFGQGTKVEIK : what is it?
A. 8.88

Q. Now consider VRDN-02020 (antibody, V domains shown) VH: QVQLQESGPGLVKPSETLSLTCTVSGYSITGGYLWNWIRQPPGKGLEWIGYISYDGTNHYKPSLKDRVTISRDTSKNQFSLKLSSVTAADTAVYYCARYGRVFFDYWGQGTLVTVSS VL: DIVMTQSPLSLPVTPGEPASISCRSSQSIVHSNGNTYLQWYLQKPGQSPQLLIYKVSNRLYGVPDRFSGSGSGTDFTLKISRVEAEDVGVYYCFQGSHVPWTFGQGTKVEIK and answer again.
A. 8.99

Further cases:
Q. So what's the measured pKd for this one? VRDN-02025 (antibody, V domains shown) VH: QVQLQESGPGLVKPSETLSLTCTVSGYSITGGYLWNWIRQPPGKGLEWIGYISYDGTNNYKPSLKDRVTISRDTSKNQFSLKLSSVTAADTAVYYCARYGRVHFDYWGQGTLVTVSS VL: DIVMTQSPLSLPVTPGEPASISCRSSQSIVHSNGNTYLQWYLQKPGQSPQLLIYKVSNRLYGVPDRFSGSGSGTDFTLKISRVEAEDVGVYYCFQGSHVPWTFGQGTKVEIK
A. 8.82
